B1: scFv; the commonest letter at each place (parent)
chain 1: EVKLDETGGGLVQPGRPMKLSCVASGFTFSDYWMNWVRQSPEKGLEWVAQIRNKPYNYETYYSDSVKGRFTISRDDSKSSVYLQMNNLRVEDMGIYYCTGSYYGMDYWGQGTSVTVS
chain 2: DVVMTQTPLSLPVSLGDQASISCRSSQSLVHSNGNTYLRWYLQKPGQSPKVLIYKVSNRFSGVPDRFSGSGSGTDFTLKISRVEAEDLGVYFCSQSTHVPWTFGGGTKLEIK

Variants of: B1
experimental-protocol: Kd (Tite-Seq)
details: with fluorescein; format: scFv 4-4-20, heavy + light
Kd values, listed per item

Return Kd for the following variant: chain 1 D106M W108H
≥ 10 µM

Next:
Return Kd for the following variant: chain 1 D106R G109H
≥ 10 µM

Return Kd for the following variant: chain 1 S30N M34I
0.00293 µM

Return Kd for the following variant: chain 1 G100N Y107K
≥ 10 µM

Return Kd for the following variant: chain 1 Y102E
≥ 10 µM

Return Kd for the following variant: chain 1 T28C S30K
0.00104 µM
